tested on: ZIKV PLCal; assay: CPE-based anti-ZIKV concentration-response assay (96-well); type: cell-based, Zika virus; settings: Zika virus, 72 h; Vero 76, MOI 0.05, 3-day incubation, CellTiter-Glo; read-out: EC50-CPE ZIKV-PLCal
measure-name: EC50

Below, 3 molecules whose answers are already recorded.
| molecule | system-name | meas-value |
| --- | --- | --- |
| CC(C)(C)c1ccc(C(=O)NC2CCS(=O)(=O)C2)cc1 (stereo not drawn) | ZIKV PLCal | > 50 µM |
| CC(C)(C)c1ccc(C(=O)NC2CCN(Cc3ccccc3)CC2)cc1 | ZIKV PLCal | 44 µM |
| CC(C)(C)c1ccc(C(=O)NC2CCOC2)cc1 (stereo not drawn) | ZIKV PLCal | 18 µM |

# per-item lookup of EC50; items listed below
1. CC(C)(C)c1ccc(C(=O)N[C@@H]2C[C@H]3CC[C@@H]2C3)cc1 (relative stereo)
2. CC(C)(C)c1ccc(C(=O)NC2CCCC2)cc1

## Result
["0.46 µM", "0.63 µM"]

Form: molecule = CC(NC(=O)c1ccc(C(C)(C)C)cc1)c1ccncc1 (stereo not drawn) ; EC50 = > 50 µM
